# Test Target: His6-AspH315–758 (human aspartate/asparagine-β-hydroxylase, AspH) (Homo sapiens)
# Construct: N-Terminally His6-tagged human AspH315–758 (His6-AspH315–758) was produced in E. coli BL21 (DE3) cells; made in house; host or cells: E. coli BL21 (DE3), pET-28a(+) vector
# Test Protocol: SPE-MS AspH inhibition assay (LOPAC screen at fixed 20 μM and IC50 dose-response), hydroxylation of cyclic peptide hFX-CP101–119
# Type: biochemical
# Settings: LOPAC compound at fixed 20 uM; plate 1, normalised to DMSO and 2,4-PDCA controls
# Plate 1 (% inhibition) annotations
Lab book: enter the figure in %, no units written.

// solved cases for Plate 1 (% inhibition) follow
>  <Molecule>
CCCCC[C@H](CC(=O)NO)C(=O)N[C@H](C(=O)N1CCC[C@H]1CO)C(C)C

>  <Plate 1 (% inhibition) / %>
-5.32

$$$$
>  <Molecule>
CCN(CC)c1ncnc2c1ncn2[C@@H]1O[C@H](COP(=O)([O-])OP(=O)([O-])C(Br)(Br)P(=O)([O-])O)[C@@H](O)[C@H]1O.[Na+].[Na+].[Na+] [ARL 67156 trisodium salt]

>  <Plate 1 (% inhibition) / %>
82.09

$$$$

Ask: Which Plate 1 (% inhibition) value is on record for Brc1ccc([C@H]2CN3CCSC3=N2)cc1.O=C(O)C(=O)O [S(-)-p-Bromotetramisole oxalate] ?
Result: 75.43

====

# Test Target: His6-AspH315–758 (human aspartate/asparagine-β-hydroxylase, AspH) (Homo sapiens)
# Construct: N-Terminally His6-tagged human AspH315–758 (His6-AspH315–758) was produced in E. coli BL21 (DE3) cells; made in house; host or cells: E. coli BL21 (DE3), pET-28a(+) vector
# Test Protocol: SPE-MS AspH inhibition assay (LOPAC screen at fixed 20 μM and IC50 dose-response), hydroxylation of cyclic peptide hFX-CP101–119
# Format: biochemical
# Settings: LOPAC compound at fixed 20 uM; substrate conversion, plate 1
Counter-ions that a name gives are not always drawn.
Listed next: entries and their corresponding Plate 1 (% conversion).
Response body: numeric value in %, unit text excluded.

Examples from the recorded data:
>  <Molecule>
CC(C)NCC(O)COc1ccc(CCOCC2CC2)cc1 (centres unmarked) [Betaxolol hydrochloride]

>  <Plate 1 (% conversion) [%]>
36.97

$$$$
>  <Molecule>
CC1=C(C)C(=O)C(CCCCC#CCCCC#CCO)=C(C)C1=O [AA-861]

>  <Plate 1 (% conversion) [%]>
43.83

$$$$
>  <Molecule>
O=C(/C=C/c1ccc(O)c(O)c1)OCCc1ccccc1 [Caffeic acid phenethyl ester, reference compound]

>  <Plate 1 (% conversion) [%]>
2.78

$$$$
>  <Molecule>
Nc1ccn([C@@H]2O[C@H](CO)[C@@H](O)C2(F)F)c(=O)n1 [Gemcitabine hydrochloride]

>  <Plate 1 (% conversion) [%]>
32.17

$$$$
>  <Molecule>
CC[C@H](NC(=O)c1c(C)c(-c2ccccc2)nc2ccccc12)c1ccccc1 [SB 222200]

>  <Plate 1 (% conversion) [%]>
44.72

$$$$

Ask: Please report the recorded Plate 1 (% conversion) for Cl.Nc1cc(Cl)c(N=C2NCCN2)c(Cl)c1 [p-Aminoclonidine hydrochloride] .
Result: 35.91

Ask: Query Nc1ncn([C@@H]2O[C@H](CO)[C@@H](O)[C@H]2O)c(=O)n1 [5-azacytidine] next
Result: 33.32

Ask: Try the molecule CC(=O)/C=C1\C(=O)N(C)c2ccccc21 [Supercinnamaldehyde]
Result: 37.03

====

# Test Target: His6-AspH315–758 (human aspartate/asparagine-β-hydroxylase, AspH) (Homo sapiens, UniProt Q12797)
# Construct: N-Terminally His6-tagged human AspH315–758 (His6-AspH315–758) was produced in E. coli BL21 (DE3) cells; made in house; host or cells: E. coli BL21 (DE3), pET-28a(+) vector
# Sequence (Q12797 315-758): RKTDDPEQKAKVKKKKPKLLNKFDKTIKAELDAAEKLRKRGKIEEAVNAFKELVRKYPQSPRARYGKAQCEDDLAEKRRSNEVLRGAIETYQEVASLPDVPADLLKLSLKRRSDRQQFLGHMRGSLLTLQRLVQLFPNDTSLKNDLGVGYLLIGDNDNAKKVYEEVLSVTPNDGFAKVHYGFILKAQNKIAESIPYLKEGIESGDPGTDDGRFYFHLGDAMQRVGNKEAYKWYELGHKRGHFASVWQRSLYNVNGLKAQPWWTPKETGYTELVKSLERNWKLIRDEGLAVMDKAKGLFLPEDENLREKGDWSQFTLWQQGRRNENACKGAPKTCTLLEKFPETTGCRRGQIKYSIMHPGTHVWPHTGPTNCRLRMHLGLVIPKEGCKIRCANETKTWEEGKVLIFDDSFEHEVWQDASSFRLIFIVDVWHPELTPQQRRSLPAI
# Test Protocol: SPE-MS AspH inhibition assay (LOPAC screen at fixed 20 μM and IC50 dose-response), hydroxylation of cyclic peptide hFX-CP101–119
# Assay type: biochemical
Where a name gives a salt, the structure may show the parent alone.
Metric Name: Plate 1 (% conversion) (%)
Record the value in %, omitting the unit from your answer.

>  <Compound>
COC(=O)C1=CCCN(C)C1 [Arecoline hydrobromide]

>  <Meas Value>
37.04

$$$$

Ask: If you can, please state the reported Plate 1 (% conversion) value of CN1[C@@H]2CC[C@H]1C[C@@H](OC(c1ccccc1)c1ccccc1N)C2 (stereo partly shown) .
Result: 38.12

Ask: Could you do the same for `C[C@H]1CCC/C=C/[C@@H]2C[C@H](O)C[C@H]2[C@H](O)/C=C/C(=O)O1` , please?
Result: 38.82

Ask: Also `Cc1ccc([N+](=O)[O-])cc1S(=O)(=O)N(C)C` ?
Result: 38.84

Ask: Next compound up: `Oc1cc(-c2ccccc2)nc2nc(Cl)ccc12`
Result: 39.07

Ask: Also need `C[C@@]12C(=O)OC(=O)[C@]1(C)[C@H]1CC[C@@H]2O1` , thanks.
Result: 17.40

====

# Test Target: His6-AspH315–758 (human aspartate/asparagine-β-hydroxylase, AspH) (Homo sapiens, UniProt Q12797)
# Construct: N-Terminally His6-tagged human AspH315–758 (His6-AspH315–758) was produced in E. coli BL21 (DE3) cells; made in house; host or cells: E. coli BL21 (DE3), pET-28a(+) vector
# Test Protocol: SPE-MS AspH inhibition assay (LOPAC screen at fixed 20 μM and IC50 dose-response), hydroxylation of cyclic peptide hFX-CP101–119
# Assay type: biochemical
// Plate 1 (% conversion) lookup, one value per entry
Record the value in %, omitting the unit from your answer.

Illustrative cases are given below, each with its answer.
>  <Compound>
O=C(O)c1cc2cc(F)ccc2[nH]1

>  <Meas Value>
31.84

$$$$
>  <Compound>
CCOc1ncc(S(=O)(=O)N2CCN(CC)CC2)cc1-c1nc2c(CC)n(CCOC)nc2c(=O)[nH]1.O=S(=O)(O)c1ccccc1 [Gisadenafil besylate salt]

>  <Meas Value>
43.96

$$$$
>  <Compound>
O=P1(N(CCCl)CCCl)NCCCO1 (stereo not shown) [Cyclophosphamide monohydrate]

>  <Meas Value>
38.48

$$$$

Shifting focus to the compound that follows.
Ask: Entry under review: CC(C)(C)c1o[nH]c(=O)c1CC(N)C(=O)O (stereo not shown) . Reported Plate 1 (% conversion)?
Result: 36.48

====

Quick list: Plate 2 (% inhibition) per entry.
# Test Target: His6-AspH315–758 (human aspartate/asparagine-β-hydroxylase, AspH) (Homo sapiens)
# Construct: N-Terminally His6-tagged human AspH315–758 (His6-AspH315–758) was produced in E. coli BL21 (DE3) cells; made in house; host or cells: E. coli BL21 (DE3), pET-28a(+) vector
# Test Protocol: SPE-MS AspH inhibition assay (LOPAC screen at fixed 20 μM and IC50 dose-response), hydroxylation of cyclic peptide hFX-CP101–119
# Format: biochemical
# Settings: 20 µM
# number only, unit % dropped from output

# annotated cases, reported Plate 2 (% inhibition) shown
>  <Molecule>
CC(N)c1cccc(Cl)c1Cl.Cl (racemic)

>  <Unit Symbol>
%

>  <Plate 2 (% inhibition)>
-8.91

$$$$
>  <Molecule>
CCCN1CCc2cccc3c2[C@H]1Cc1ccc(O)c(O)c1-3.Cl [R(-)-Propylnorapomorphine hydrochloride]

>  <Unit Symbol>
%

>  <Plate 2 (% inhibition)>
84.00

$$$$
>  <Molecule>
CCCCCCN(CCCCCC)C(=O)Cc1c(-c2ccc(F)cc2)[nH]c2ccccc12

>  <Unit Symbol>
%

>  <Plate 2 (% inhibition)>
1.31

$$$$
>  <Molecule>
NCCc1c[nH]c2ccc(C(N)=O)cc12.O=C(O)/C=C\C(=O)O [5-Carboxamidotryptamine maleate]

>  <Unit Symbol>
%

>  <Plate 2 (% inhibition)>
0.99

$$$$
>  <Molecule>
O=[N+]([O-])c1cc(O)c(O)c([N+](=O)[O-])c1 [3,5-Dinitrocatechol, reference compound]

>  <Unit Symbol>
%

>  <Plate 2 (% inhibition)>
101.20

$$$$

Ask: If you can, please state the reported Plate 2 (% inhibition) value of CCCn1c(=O)c2[nH]c(C3CCCC3)nc2n(CCC)c1=O [8-Cyclopentyl-1,3-dipropylxanthine] .
Result: -8.06

Ask: Try this molecule next: Cl.Cn1c(CCCC(=O)O)nc2cc(N(CCCl)CCCl)ccc21 [Bendamustine hydrochloride]
Result: -10.22

Ask: Entry to check: c1ccc(-c2ccccn2)nc1 [2,2-Bipyridyl]
Result: 23.93

Ask: Now the molecule COC1=C(OC)C(=O)c2ccccc2C1=O [2,3-Dimethoxy-1,4-naphthoquinone]
Result: 6.56
